Here the recorded composite z-score is given for each entry.
Test system: Sam68 (KHDRBS1)
Experiment: Sam68 small-molecule binders, primary screen, biochemical, small-molecule microarray, 635 nm fluorescence (AID 1125);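 further: score merges 667 nm channel intensity with signal to noise over triplicate slides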
Conditions: small-molecule microarray binding, higher = more signal
REPORTED_METRIC: composite z-score

COMPOUND	REPORTED
CCN(CC)c1ccc(N2CC=CC34O[C@@H]5/C=C\CCC(C)OC(=O)C5[C@H]3C(=O)N(C(CO)C(C)C)[C@@H]4C2=O)cc1 (some centres undefined)	0.213
CCOC(=O)C[C@H]1[C@H](OC(=O)Cc2ccc3c(c2)OCO3)[C@@H](NC(=O)c2ccc(-c3ccccc3)cc2)c2cc(OCCCO)ccc2N1C(=O)c1ccc2ccccc2n1	0.202
C=C(CCCC)C(=O)CC[C@H](OC(=O)c1cccnc1)c1ccccc1OCCO	-0.546
C=CCNC(=O)[C@@H]1[C@H]2C(=O)O[C@H](c3ccccc3)[C@H](c3ccccc3)N2[C@H](c2ccccc2OCCO)[C@@]12C(=O)N(C(=O)OCCOC)c1ccc(C#CCNC(N)=O)cc12	1.32
